- Tested on: RAW-Dual
- assay-explanation: NF-kB SEAP reporter activity, fold change vs agonist alone; cytotoxicity flag (confluency mask): cytotoxic (confluency <70% of control); library stock concentration (final ~1000-fold dilution): 10 mM; higher = enhanced NF-kB activity
- experimental-context: agonist: Pam3CSK4 (TLR2/1) 0.1 ug/mL
In all, about 2,900 compounds were measured (“NF-kB SEAP reporter activity, fold change vs agonist alone”: median about 0.99, highest 2% from about 2.6 on). The entries come from a sample that favours the highest values as a whole.
measured-quantity: NF-kB SEAP reporter activity
Form rule: numeric answer, no unit written next to it.

Check out these entries, answers already filled in.
compound	NF-kB SEAP reporter activity
Cc1sc2c(c1C)C(c1ccc(Cl)cc1)=NC(CC(=O)OC(C)(C)C)c1nnc(C)n1-2 (stereo not drawn)	1.19
Nc1ncnc2c1ccn2C1OC(CO)C(O)C1O (stereo not drawn)	0.156
CCc1c2c(nc3ccccc13)-c1cc3c(c(=O)n1C2)COC(=O)C3(O)CC (stereo not drawn)	0.641
O=C(CBr)N1CC([N+](=O)[O-])([N+](=O)[O-])C1	0.189
CN1Cc2c(ccc3c2OCO3)C2C(O)Cc3cc4c(cc3C21)OCO4 (stereo not drawn)	2.18

Input: // lookup NF-kB SEAP reporter activity for COc1cc(C2c3cc4c(cc3C(O)C3COC(=O)C23)OCO4)cc(OC)c1OC (stereo not drawn)
Output: 2.18

Input: // lookup NF-kB SEAP reporter activity for Cn1c(CCCCCCC(=O)NO)nc2cc(N(CCCl)CCCl)ccc21
Output: 1.91

Input: // lookup NF-kB SEAP reporter activity for CN1C(=O)C23CC4(C56CC78SSC(CO)(C(=O)N7C5Nc5ccccc56)N(C)C8=O)c5ccccc5NC4N2C(=O)C1(CO)SS3 (stereo not drawn)
Output: 0.196
